# TARGET ENTITY: PPARα receptor (GST-hPPARα LBD) (Homo sapiens, UniProt Q07869)
# Construct: made in house; host or cells: E. coli BL21 (DE3)
# Sequence (Q07869 167-468): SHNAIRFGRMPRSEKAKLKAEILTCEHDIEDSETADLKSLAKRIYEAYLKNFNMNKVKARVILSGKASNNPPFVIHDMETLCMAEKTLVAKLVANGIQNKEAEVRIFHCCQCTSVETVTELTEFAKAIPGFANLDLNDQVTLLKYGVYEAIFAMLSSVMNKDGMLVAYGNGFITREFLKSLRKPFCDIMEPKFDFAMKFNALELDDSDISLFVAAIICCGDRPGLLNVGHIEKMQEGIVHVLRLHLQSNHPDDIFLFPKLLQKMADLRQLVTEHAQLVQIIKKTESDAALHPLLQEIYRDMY
# TEST PROTOCOL: PPARα receptor functional binding assay (CARLA, TR-FRET)
# Type: biochemical
# TEST CONTEXT: SRC-1 peptide recruitment
REPORTED ENDPOINT: EC50

Exercise: Value lookup for EC50; key = Cc1cccc(NS(=O)(=O)c2ccc(OCc3nc(-c4ccccc4)oc3C)cc2)c1C(=O)O
Key: ~8 nM
